Test system: HOP-92 NSCLC
Experiment: NCI-60 one-dose screen, 48 h
Details: 10 µM unless noted
Compounds without any hit were thinned out: in the full panel of roughly 83,000, 20% have a hit. Calls of active or inactive are those of the source. Rule for the calls: active = growth percent below 10; inactive = the rest.
Pick one and only one: active, inactive

Lookup: Returns: the outcome recorded for Cc1ccc(C(=NN=C(N)N)c2ccc(C)cc2)cc1 in this assay.
Found: active

Lookup: Returns: the outcome recorded for COc1ccc2c(c1)C(=O)/C(=C/c1cccc(OCC(=O)Nc3nc(C)c(C)s3)c1)O2 in this assay.
Found: active

Lookup: Returns: the outcome recorded for Nc1cc2c3c(cccc3c1)C(=O)N(CCN1CCCC1)C2=O in this assay.
Found: inactive

Lookup: Returns: the outcome recorded for N#C/C(=C\c1ccc(-c2ccccc2F)o1)c1nc(-c2ccco2)cs1 in this assay.
Found: inactive

Lookup: Returns: the outcome recorded for CC1SC(c2ccc(OCc3ccccc3)cc2)N(NC(=O)C(O)(c2ccccc2)c2ccccc2)C1=O (stereo not given) in this assay.
Found: inactive

Lookup: Returns: the outcome recorded for COCCN(C(=O)c1ccc(F)cc1F)c1c(N)n(Cc2ccccc2)c(=O)[nH]c1=O in this assay.
Found: inactive

---
Lookup: Returns: the outcome recorded for COC(=O)[C@]12CC[C@@H](C)[C@H](C)[C@@H]1C1=CC[C@@H]3[C@@]4(C)C(C=O)=C[C@@](C)(COC(=O)c5ccco5)C4=CC[C@@]3(C)[C@]1(C)CC2 in this assay.
Found: active

Lookup: Returns: the outcome recorded for CCN(CCNc1ccc(C)c2sc3ccccc3c(=O)c12)CC(C)(C)O in this assay.
Found: inactive

Lookup: Returns: the outcome recorded for O=C(/C=C/c1ccc(Cl)nc1)c1ccc(Cl)cc1Cl in this assay.
Found: inactive

Lookup: Returns: the outcome recorded for COc1ccc2c(c1)O/C(=C\c1cccc(OCC(=O)Nc3nc(C)c(C)s3)c1)C2=O in this assay.
Found: active

Lookup: Returns: the outcome recorded for O=c1c2cc(F)ccc2sc2c(NCCCN3CCCC3)nc3ccccc3c12 in this assay.
Found: inactive

Lookup: Returns: the outcome recorded for COc1ccc(-c2nc(SCCC(C)C)nc(N/N=C\c3cccc([N+](=O)[O-])c3)c2C#N)cc1 in this assay.
Found: inactive

Lookup: Returns: the outcome recorded for CCCCCCN(CCCCCC)c1ccc(/C=C2/SC(=O)N(c3nc(N4CCCC4)nc(N4CCCC4)n3)C2=O)c(C)c1 in this assay.
Found: active

Lookup: Returns: the outcome recorded for COc1cc2ncn3c(=O)c4c5c(sc4nc3c2cc1OC)CCCC5 in this assay.
Found: inactive

Lookup: Returns: the outcome recorded for CCc1ccccc1-n1c(-c2ccc(Cl)cc2)cc(-c2ccc(Cl)cc2)c(C#N)c1=O in this assay.
Found: inactive

----------
Test system: A549/ATCC NSCLC
Assay: NCI-60 one-dose screen, 48 h (100 = growth as untreated, 0 = no growth, -100 = all killed)
Conditions: 10 µM unless noted
Method: Growth inhibition of the A549/ATCC human Non-Small Cell Lung tumor cell line is measured as a screen for anti-cancer activity. Cells are grown in 96 well plates and exposed to the test compound for 48 hours. Compounds are tested at a single concentration, which is 10^-5 M for most compounds. The reported endpoint is percent growth (GI% or GIPRCNT), where numbers from 0 - 100% represent growth inhibition, and numbers from -100% - 0 represent cell death. […]
About 83,000 compounds went through this panel and 20% of them were active in at least one assay; those are over-represented in the sample as a whole. Calls of active or inactive are those of the source. Rule for the calls: active = growth percent below 10; inactive = the rest.
Measured quantity: growth

Here is how some compounds turned out for growth.
Lookup: Dear colleague, please send me the reported growth for Cc1ccc(CCC(=O)Nc2ncc(Cc3cc(Cl)ccc3Cl)s2)o1 when you can.
Found: 23.1% (inactive)

Lookup: Dear colleague, please send me the reported growth for Cc1ccc(/C=C/c2c(C(=O)/C=C/c3ccc(C(F)(F)F)cc3)c(C)nc3ccccc23)cc1 when you can.
Found: 77.2% (inactive)

Lookup: Dear colleague, please send me the reported growth for COc1ccc(/C=C/c2c(C(=O)/C=C/c3cccs3)c(C)nc3ccccc23)cc1 when you can.
Found: 92.5% (inactive)

Lookup: Dear colleague, please send me the reported growth for COc1cc(-c2n/c(=C\c3c(O)[nH]c4ccc(Cl)cc34)cc3c2=Nc2ccccc2-3)cc(OC)c1OC when you can.
Found: -39.4% (active)

Lookup: Dear colleague, please send me the reported growth for COc1cc(Cn2ncc3ccc(NC(=O)c4cc5ccccc5oc4=N)cc32)cc(OC)c1OC when you can.
Found: 50.7% (inactive)

Attention now shifts to the item below.
Lookup: Dear colleague, please send me the reported growth for CC(=O)n1c(-c2ccc(Cl)cc2)nc2c(c1=O)C(c1ccc(Cl)cc1)c1sc3c(Cl)cccc3c1O2 (stereo unspecified) when you can.
Found: -63.7% (active)

----------
Test system: MCF7 breast
Assay: NCI-60 one-dose screen, 48 h (100 = growth as untreated, 0 = no growth, -100 = all killed)
Conditions: 10 µM unless noted
Compounds without any hit were thinned out: in the full panel of roughly 83,000, 20% have a hit.
Measured quantity: growth (%)
Please respond with the number in % and leave the unit unwritten.

Here is how some compounds turned out for growth.
Lookup: Dear colleague, please send me the reported growth for Nc1ccc2c(c1)c(N)nn2C(=O)Nc1ccc(Cc2ccccc2)cc1 when you can.
Found: 64.3

Lookup: Dear colleague, please send me the reported growth for O=C(CSc1nnc(-c2ccc(NC(=O)c3cccnc3)cc2)o1)Nc1cccc(Br)c1 when you can.
Found: 90.3

Lookup: Dear colleague, please send me the reported growth for N=C1C(c2nc(-c3ccc(Br)cc3)cs2)=C(O)CN1CC1CCCO1 (stereo unspecified) when you can.
Found: 78.4

---
Lookup: Dear colleague, please send me the reported growth for COc1cccc(-c2nn(-c3ccccc3)cc2-c2ccnc(NCCNC(=O)Nc3cccc(C(F)(F)F)c3)c2)c1 when you can.
Found: 15.3

Lookup: Dear colleague, please send me the reported growth for CCN(CCNc1ccc(C)c2sc3ccccc3c(=O)c12)CC(C)(C)O when you can.
Found: 81.8

Lookup: Dear colleague, please send me the reported growth for C[C@@]1(CCC#N)[C@H]2CC[C@@H]3[C@H]4[C@H](C(=O)/C=C/c5cccnc5)CC[C@]4(C#N)CC[C@@]3(C)[C@]2(C)CC[C@H]1C(=O)/C=C/c1cccnc1 when you can.
Found: 39.4

Lookup: Dear colleague, please send me the reported growth for c1ccc2cc3nc4cc5ccccc5cc4nc3cc2c1 when you can.
Found: 81.9

Lookup: Dear colleague, please send me the reported growth for O=S(=O)(NCCCNc1cc(-c2c(-c3cccc(O)c3)nc3sccn23)ccn1)c1cccc(Cl)c1 when you can.
Found: 55.5

Lookup: Dear colleague, please send me the reported growth for O=[N+]([O-])c1ccc(OCCO)cc1 when you can.
Found: 94.3

Lookup: Dear colleague, please send me the reported growth for CC(C)(C)c1ccc(/C=C/C(=O)Nc2ccc(O)cc2)cc1 when you can.
Found: 60.9

Lookup: Dear colleague, please send me the reported growth for CCC1(C2CCCC2)NC(=O)NC1=O (stereo unspecified) when you can.
Found: 83.9

----------
System: SW-620 colon
Assay: NCI-60 one-dose screen, 48 h
Settings: 10 µM unless noted
About 83,000 compounds went through this panel and 20% of them were active in at least one assay; those are over-represented in the sample as a whole. Active and inactive are the calls of the source. The calls were made as follows: active = growth percent below 10; inactive = the rest.
Pick one and only one: Yes (active), No (inactive)

Solved cases (3 shown):
Lookup: Returns: the outcome recorded for O=C1NC(=Nc2ccc(Cl)cc2)S/C1=C\c1cn(-c2ccccc2)nc1-c1ccccc1 in this assay.
Found: No

Lookup: Returns: the outcome recorded for CCOP(=O)(OCC)C1CP(=O)(c2ccccc2)CC(C)=C1Cl (centres undefined) in this assay.
Found: No

Lookup: Returns: the outcome recorded for COc1ccc(S(=O)(=O)NCCNc2nccc(-c3c(-c4cccc(F)c4)nc4sccn34)n2)cc1 in this assay.
Found: No

---
Lookup: Returns: the outcome recorded for CC(C)CC(NC(=O)CN(Cc1ccccc1)S(C)(=O)=O)C(=O)O (centres undefined) in this assay.
Found: No

Lookup: Returns: the outcome recorded for N=c1sc(Cc2ccc(Cl)cc2)cn1CC(=O)c1ccc(F)cc1 in this assay.
Found: No

----------
Test system: SW-620 colon
Experiment: NCI-60 one-dose screen, 48 h (100 = growth as untreated, 0 = no growth, -100 = all killed)
Conditions: 10 µM unless noted
About 83,000 compounds went through this panel and 20% of them were active in at least one assay; those are over-represented in the sample as a whole.
Note to self: class = bucket of growth, per L: < 10%; M: ≥ 10% and < 30%; H: ≥ 30%

Lookup: Pick a category. Item: COc1ccc2c(c1)[nH]c(=O)c1c3cccnc3cn21
Found: M

Lookup: Pick a category. Item: Cc1cc(NCc2cc(Nc3ccnc4cc(Cl)ccc34)ccc2F)nc(Cl)n1
Found: H

Lookup: Pick a category. Item: Cc1cc(Cl)ccc1Nc1nc(C(F)(F)F)ccc1C(=O)N/N=C/c1ccc(N(C)C)cc1
Found: M

---
Lookup: Pick a category. Item: CCCCn1c(=O)c2c(nc(NCCc3ccc(O)c(O)c3)n2CCC)n(CCCC)c1=O
Found: H

Lookup: Pick a category. Item: N/C(=N\c1nc2ccccc2s1)NC(=O)Nc1cccc(Cl)c1
Found: H

Lookup: Pick a category. Item: COc1ccc(-c2nc(SCCC(C)C)nc(N/N=C\c3cccc([N+](=O)[O-])c3)c2C#N)cc1
Found: M

Lookup: Pick a category. Item: O=C(Cc1ccc(F)c(F)c1)Nc1cc(C2(C(F)(F)F)CC2)nn1Cc1ccccc1
Found: M

Lookup: Pick a category. Item: CC/C=C\C[C@H](O)C/C=C1/C(=O)C=C[C@@H]1C/C=C\CCCC(=O)OC
Found: L

Lookup: Pick a category. Item: CCOC(=O)c1c2c(n3ccc(NC(=O)OC(C)(C)C)cc13)C(=O)c1ncccc1C2=O
Found: L
